Attribution: ChEMBL document CHEMBL1132240

We begin with a simple list: items and their reported log10 of IC90.
Tested on: Lewis lung carcinoma cell line
testDescription: Cytotoxic activity against solid tumor LLC(Lewis lung carcinoma), concentration of agent required to reduce cell viability by 90%
Assay type: functional
measurementSetup: Mus musculus
endpoint: log10 of IC90 (log10 of the value in µM)

{"columns": ["molecule", "log10 of IC90"],
 "data": [
  ["CCN(CC)CCn1c2cc(N3CCN(C)CC3)c(N)cc2c(=O)c2c(O)cc(O)cc21", 1.54],
  ["CCN(CC)CCn1c2cc(Cl)c(N)cc2c(=O)c2c(O)cc(OC)cc21", 1.04],
  ["CCN(CC)CCn1c2cc(OC)c(N)cc2c(=O)c2c(O)cc(O)cc21", 1.51],
  ["CCn1c2cc(N3CCN(C)CC3)c(N)cc2c(=O)c2c(O)cc(OC)cc21", 1.04],
  ["CCN(CC)CCn1c2cc(Cl)c(N)cc2c(=O)c2c(O)cc(O)cc21", 1.04],
  ["CCN(CC)CCNc1cc2c(cc1N)c(=O)c1c(O)cc(O)cc1n2CC", 1.66],
  ["CCN(CC)CCn1c2cc(NC)c(N)cc2c(=O)c2c(O)cc(O)cc21", 1.81],
  ["CCn1c2cc(N3CCN(C)CC3)c(N)cc2c(=O)c2c(O)cc(O)cc21", 1.23],
  ["CCn1c2cc(N3CC(C)NC(C)C3)c(N)cc2c(=O)c2c(O)cc(O)cc21 (stereo unspecified)", 1.63],
  ["COc1cc([C@@H]2c3cc4c(cc3[C@@H](O[C@@H]3O[C@@H]5CO[C@@H](C)O[C@H]5[C@H](O)[C@H]3O)[C@H]3COC(=O)[C@H]23)OCO4)cc(OC)c1O [ETOPOSIDE]", 0.65]
]}

---

System: bone marrow cells (human)
testDescription: Relative cytotoxicity against Human bone marrow samples; Value is in range, activity expressed as IC50
endpoint: IC50 (µM)

{"columns": ["smilesEntry", "endpoint", "reportedResult"],
 "data": [
  ["O=C1c2c(O)ccc(O)c2C(=O)c2c(NCCNCCO)ccc(NCCNCCO)c21", "IC50", 27.6]
]}

---

System: Lewis lung carcinoma cell line
testDescription: Cytotoxic activity against solid tumor LLC(Lewis lung carcinoma), concentration of agent required to reduce cell viability by 50%
Type: functional, cell-based
measurementSetup: Mus musculus
pIC50: −log10 of the molar value.
endpoint: pIC50

{"columns": ["compound", "endpoint", "reportedResult"],
 "data": [
  ["CCn1c2cc(N3CCN(C)CC3)c(N)cc2c(=O)c2c(O)cc(OC)cc21", "pIC50", 5.03],
  ["CCn1c2cc(N3CC(C)NC(C)C3)c(N)cc2c(=O)c2c(O)cc(O)cc21 (stereo not given)", "pIC50", 4.54],
  ["CCN(CC)CCn1c2cc(OC)c(N)cc2c(=O)c2c(O)cc(O)cc21", "pIC50", 5.00],
  ["CCN(CC)CCn1c2cc(NC)c(N)cc2c(=O)c2c(O)cc(O)cc21", "pIC50", 4.64],
  ["CCn1c2cc(N3CCN(C)CC3)c(N)cc2c(=O)c2c(O)cc(O)cc21", "pIC50", 4.96]
]}

---

System: HL-60
testDescription: Cytotoxic activity against Human promyelocytic Leukemia HL-60 Concentration of agent required to reduce cell viability by 50%
Type: functional, cell-based
Rule: measured IC50 below 10 µM gets Satisfied; anything equal to or greater than 10 µM gets Not satisfied.

{"columns": ["compound", "targetOrTestSystem", "qualitativeLabel"],
 "data": [
  ["CCN(CC)CCn1c2cc(O)c(N)cc2c(=O)c2c(O)cc(O)cc21", "HL-60", "Not satisfied"],
  ["CCn1c2cc(N3CCN(C)CC3)c(N)cc2c(=O)c2c(O)cc(O)cc21", "HL-60", "Not satisfied"],
  ["CCN(CC)CCn1c2cc(OC)c(N)cc2c(=O)c2c(O)cc(O)cc21", "HL-60", "Satisfied"],
  ["CCn1c2cc(Cl)c(N)cc2c(=O)c2c(O)cc(O)cc21", "HL-60", "Not satisfied"],
  ["CCN(CC)CCn1c2cc(N3CCC(O)CC3)c(N)cc2c(=O)c2c(O)cc(O)cc21", "HL-60", "Satisfied"],
  ["CCn1c2cc(N3CC(C)NC(C)C3)c(N)cc2c(=O)c2c(O)cc(O)cc21 (stereo unspecified)", "HL-60", "Not satisfied"]
]}

---

We begin with a simple list: items and their reported pIC50.
Test system: P388
testDescription: Cytotoxic activity against Murine Lymphocytic Leukemia P388 Concentration of agent required to reduce cell viability by 50%
Format: functional, cell-based
measurementSetup: Mus musculus
pIC50: −log10 of the molar value.
endpoint: pIC50

{"columns": ["smilesEntry", "reportedRelation", "reportedResult"],
 "data": [
  ["CCN(CC)CCNc1cc2c(cc1N)c(=O)c1c(O)cc(O)cc1n2CC", "=", 5.37],
  ["CCN(CC)CCn1c2cc(OC)c(N)cc2c(=O)c2c(O)cc(O)cc21", "=", 5.55],
  ["CCN(CC)CCn1c2cc(N3CCC(O)CC3)c(N)cc2c(=O)c2c(O)cc(O)cc21", "=", 6.21],
  ["CCn1c2cc(N3CCSCC3)c(N)cc2c(=O)c2c(O)cc(O)cc21", "<", 4.00],
  ["CCN(CC)CCn1c2cc(N3CCCC3)c(N)cc2c(=O)c2c(O)cc(O)cc21", "=", 5.01]
]}

---

Test system: HL-60
testDescription: Relative cytotoxicity against Human promyelocytic Leukemia(HL-60) cells; Value is in range, activity expressed as IC50
Type: functional, cell-based
pIC50: −log10 of the molar value.
Label scheme for pIC50: lower than 5 is no (0), 5 and above is yes (1).

{"columns": ["smilesEntry", "targetOrTestSystem", "qualitativeLabel"],
 "data": [
  ["CCN(CC)CCn1c2cc(Cl)c(N)cc2c(=O)c2c(O)cc(O)cc21", "HL-60", "yes (1)"],
  ["CCn1c2cc(N3CCN(C)CC3)c(N)cc2c(=O)c2c(O)cc(O)cc21", "HL-60", "no (0)"],
  ["CCn1c2cc(Cl)c(N)cc2c(=O)c2c(O)cc(O)cc21", "HL-60", "no (0)"],
  ["CCn1c2cc(N3CCC(O)CC3)c(N)cc2c(=O)c2c(O)cc(O)cc21", "HL-60", "yes (1)"],
  ["O=C1c2c(O)ccc(O)c2C(=O)c2c(NCCNCCO)ccc(NCCNCCO)c21", "HL-60", "yes (1)"],
  ["CCN(CC)CCn1c2cc(N3CCC(O)CC3)c(N)cc2c(=O)c2c(O)cc(O)cc21", "HL-60", "yes (1)"]
]}

---

Tested on: P388
testDescription: Cytotoxic activity against Murine Lymphocytic Leukemia P388 Concentration of agent required to reduce cell viability by 50%
Assay type: functional, cell-based
measurementSetup: Mus musculus
We begin with a simple list: items and their reported IC50.

{"columns": ["compound", "reportedRelation", "IC50 (µM)"],
 "data": [
  ["CCn1c2cc(N3CC(C)NC(C)C3)c(N)cc2c(=O)c2c(O)cc(O)cc21 (stereo not given)", "=", 6.2],
  ["CCN(CC)CCn1c2cc(Cl)c(N)cc2c(=O)c2c(O)cc(O)cc21", "=", 1.4],
  ["CCN(CC)c1cc2c(cc1N)c(=O)c1c(O)cc(O)cc1n2CC", "=", 24],
  ["CCN(CC)CCn1c2cc(NC)c(N)cc2c(=O)c2c(O)cc(O)cc21", "=", 3.9],
  ["CCN(CC)CCn1c2cc(N3CCN(C)CC3)c(N)cc2c(=O)c2c(O)cc(O)cc21", "=", 7.2],
  ["CCn1c2cc(Cl)ccc2c(=O)c2c(O)cc(O)cc21", ">", 100],
  ["CCn1c2cc(N3CCN(C)CC3)c(N)cc2c(=O)c2c(O)cc(O)cc21", "=", 4.6],
  ["CN1CCN(c2cc3nc4cc(O)cc(O)c4c(O)c3cc2N)CC1", "=", 57],
  ["CCN(CC)CCn1c2cc(O)c(N)cc2c(=O)c2c(O)cc(O)cc21", "=", 26],
  ["CN1CCN(c2cc3c(cc2N)c(=O)c2c(O)cc(O)cc2n3C)CC1", "=", 7.2]
]}

---

testDescription: Ratio of antilog(mean log IC90 in bone marrow sample) and antolog(mean log IC90) in HL-60)
Format: functional
endpoint: Ratio

{"columns": ["molecule", "reportedResult"],
 "data": [
  ["CCn1c2cc(N3CCC(O)CC3)c(N)cc2c(=O)c2c(O)cc(O)cc21", 1.5],
  ["CCn1c2cc(N3CCN(C)CC3)c(N)cc2c(=O)c2c(O)cc(O)cc21", 0.5],
  ["CCN(CC)CCn1c2cc(Cl)c(N)cc2c(=O)c2c(O)cc(O)cc21", 0.7],
  ["CCn1c2cc(Cl)c(N)cc2c(=O)c2c(O)cc(O)cc21", 0.5],
  ["O=C1c2c(O)ccc(O)c2C(=O)c2c(NCCNCCO)ccc(NCCNCCO)c21 [MITOXANTRONE]", 11.6],
  ["CCN(CC)CCn1c2cc(N3CCC(O)CC3)c(N)cc2c(=O)c2c(O)cc(O)cc21", 1.1]
]}
